# System: IgG Fc fragment (IgG-Fc) (human), P01857-1
# METHOD: SPR
# EXPERIMENTAL PARAMETERS: 2'-F at all pyrimidines; solution A
Readings of pKd for the listed sequences
Lab note: report pKd as minus log10 of the concentration in molar units, number only.

Reference set (3 entries):
> print(dat)
                                   sequence                            assayed.system  reported.endpoint  observed
1  GGGACACAAUGGACGGCGUAAAAUGGAACCUGGGUUAGAAUAUCGGGGGUGCUCCGUAACGGCCGACAUGAGAG [SEQ ID NO:3]  IgG Fc fragment (IgG-Fc) (human), P01857-1                pKd     12.30
2  GGGACACAAUGGACGGGUGUUACAGGUGCUUGAUAAAGGUAGAAAAUCAAACUGUAACGGCCGACAUGAGAG [SEQ ID NO:7]  IgG Fc fragment (IgG-Fc) (human), P01857-1                pKd     12.00
3  GGGACACAAUGGACGAGUUACAGGUGCUCCAUCAACAAAAUGUUACAUGGAACUGUAACGGCCGACAUGAGAG [SEQ ID NO:1]  IgG Fc fragment (IgG-Fc) (human), P01857-1                pKd     11.96

Please turn your attention to the following entry.
Noted pKd for GGGACACAAUGGACGACUACAAGGUGCUCCUUGAAAUGUUAAAUGAGGAACUUGUAACGGCCGACAUGAGAG [SEQ ID NO:5] , tested on IgG Fc fragment (IgG-Fc) (human), P01857-1: 12.22
